- Measurement notes: Plasma and brain exposure in non-tumour bearing male Sprague Dawley rats
- Type: in vivo, rat
- Setup conditions: Sprague Dawley, rat, brain; male SD rats, single oral dose 30 mg/kg, 4 h; read-out: Brain concentration (Mean)

{"columns": ["Molecule", "Measurement units", "concentration at 4 h"],
 "data": [
  ["CCN1CCN(Cc2ccc(Nc3ncc(F)c(-c4cc(F)c5nc(C)n(C(C)C)c5c4)n3)nc2)CC1.CS(=O)(=O)O [Example 16, methanesulfonate]", "ng/g", 1500]
]}

###

- Measurement notes: Plasma and brain exposure in non-tumour bearing male Sprague Dawley rats
- Type: in vivo, rat
- Setup conditions: male, Sprague Dawley, rat, brain/plasma, po, 30 mg/kg, male SD rats, 30 mg/kg oral; read-out: Cmax Brain/Plasma Ratio

{"columns": ["Compound smiles", "Kp at 4 h"],
 "data": [
  ["CCN1CCN(Cc2ccc(Nc3ncc(F)c(-c4cc(F)c5nc(C)n(C(C)C)c5c4)n3)nc2)CC1.CS(=O)(=O)O", 1]
]}
